target: PAI-1 (Homo sapiens, UniProt P05121); assay: biochemical; conditions: 100 μM
Sequence (P05121 24-402): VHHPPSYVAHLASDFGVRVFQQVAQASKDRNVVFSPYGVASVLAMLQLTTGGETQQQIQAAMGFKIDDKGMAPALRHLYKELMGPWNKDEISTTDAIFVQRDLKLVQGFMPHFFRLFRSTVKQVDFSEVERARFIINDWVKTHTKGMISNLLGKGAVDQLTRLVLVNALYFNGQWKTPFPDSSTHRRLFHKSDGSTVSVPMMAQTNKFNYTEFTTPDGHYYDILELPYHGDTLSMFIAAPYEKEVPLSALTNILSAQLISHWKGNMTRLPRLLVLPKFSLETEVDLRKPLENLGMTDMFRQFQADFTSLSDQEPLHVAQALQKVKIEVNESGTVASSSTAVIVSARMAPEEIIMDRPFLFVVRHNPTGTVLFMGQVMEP
Response key: Fulfilled means Degree of inhibition in PAI chromogenic substrate assay >= 60%; Not fulfilled means Degree of inhibition in PAI chromogenic substrate assay < 60%.

Exercise: Does the reported Degree of inhibition in PAI chromogenic substrate assay for CN(C)CCOc1ccc(/C=c2\[nH]c(=O)/c(=C/c3ccccc3)[nH]c2=O)c(OCCN(C)C)c1 [Compound 1984] fall at or above the 60% mark?
Key: Not fulfilled

Exercise: Does the reported Degree of inhibition in PAI chromogenic substrate assay for CN(C)CCOc1ccc(/C=c2\[nH]c(=O)/c(=C/c3ccccc3)[nH]c2=O)cc1OCCN(C)C [Compound 1949] fall at or above the 60% mark?
Key: Not fulfilled

Exercise: Does the reported Degree of inhibition in PAI chromogenic substrate assay for CN(C)CCOc1ccc(/C=c2\[nH]c(=O)/c(=C/c3ccccc3)[nH]c2=O)cc1 [Compound 1908] fall at or above the 60% mark?
Key: Fulfilled

Exercise: Does the reported Degree of inhibition in PAI chromogenic substrate assay for "CN(C)CCOc1ccc(/C=c2\[nH]c(=O)/c(=C/c3c(Cl)cccc3Cl)[nH]c2=O)cc1" fall at or above the 60% mark?
Key: Fulfilled

Exercise: Does the reported Degree of inhibition in PAI chromogenic substrate assay for CN(C)CCOc1ccccc1/C=c1\[nH]c(=O)/c(=C/c2ccccc2)[nH]c1=O [Compound 1979] fall at or above the 60% mark?
Key: Not fulfilled

Exercise: Does the reported Degree of inhibition in PAI chromogenic substrate assay for CN(C)CCOc1ccc(/C=c2\[nH]c(=O)/c(=C/c3ccccc3)[nH]c2=O)c(OCCN(C)C)c1 [Compound 1969] fall at or above the 60% mark?
Key: Not fulfilled

###

Give Degree of inhibition in PAI chromogenic substrate assay for every item shown.
biological target: PAI-1 (Homo sapiens, UniProt P05121); assay: biochemical; conditions: 25 μM
All answers are understood in %, so give the number only.

Input CN(C)CCOc1ccc(/C=c2\[nH]c(=O)/c(=C/c3ccccc3)[nH]c2=O)cc1 [Compound 1954] . Output Degree of inhibition in PAI chromogenic substrate assay: 67

Input CN(C)CCOc1ccc(/C=c2\[nH]c(=O)/c(=C/c3ccccc3)[nH]c2=O)cc1OCCN(C)C [Compound 1978] . Output Degree of inhibition in PAI chromogenic substrate assay: 11

Input CN(C)CCOc1ccc(/C=c2\[nH]c(=O)/c(=C/c3c(Cl)cccc3Cl)[nH]c2=O)cc1 [Compound 1952] . Output Degree of inhibition in PAI chromogenic substrate assay: 19

###

target: PAI-1 (Homo sapiens, UniProt P05121); assay: biochemical; settings: 6.25 μM
Readout Type: Degree of inhibition in PAI chromogenic substrate assay (%)
All answers are understood in %, so give the number only.

Input CN(C)CCOc1ccc(/C=c2\[nH]c(=O)/c(=C/c3ccccc3)[nH]c2=O)cc1OCCN(C)C [Compound 1949] . Output Degree of inhibition in PAI chromogenic substrate assay: 1

Input CN(C)CCOc1ccc(/C=c2\[nH]c(=O)/c(=C/c3ccccc3)[nH]c2=O)cc1 [Compound 1954] . Output Degree of inhibition in PAI chromogenic substrate assay: 37

Input "CN(C)CCCOc1ccc(/C=c2\[nH]c(=O)/c(=C/c3ccc(OCCCN(C)C)cc3)[nH]c2=O)cc1" . Output Degree of inhibition in PAI chromogenic substrate assay: 0

Hello, the source for this data is patent US5902812A, in case you need it.
